Where do these numbers come from? They come from ChEMBL document CHEMBL1152758.

System: U-251
assay.method.text: Cytotoxicity against human U251 cells after 48 hrs by SRB assay
Format: functional, cell-based
run.conditions: U-251, 48 h
pIC50: −log10 of the molar value.
value.type: pIC50

INSERT INTO results (molecule, value_type, result) VALUES
  ('CC1(C)CNC(=O)c2cc3n(c2C1)CCc1ccccc1-3', 'pIC50', '< 4.00');

Data point: `CC1(C)CNC(=O)c2cc3n(c2C1)CCc1cc(Br)ccc1-3` ; pIC50 = 4.74

###

assay.target: Cyclin-dependent kinase 5/CDK5 activator 1 (Homo sapiens, UniProt Q00535)
Sequence (Q00535 whole entry): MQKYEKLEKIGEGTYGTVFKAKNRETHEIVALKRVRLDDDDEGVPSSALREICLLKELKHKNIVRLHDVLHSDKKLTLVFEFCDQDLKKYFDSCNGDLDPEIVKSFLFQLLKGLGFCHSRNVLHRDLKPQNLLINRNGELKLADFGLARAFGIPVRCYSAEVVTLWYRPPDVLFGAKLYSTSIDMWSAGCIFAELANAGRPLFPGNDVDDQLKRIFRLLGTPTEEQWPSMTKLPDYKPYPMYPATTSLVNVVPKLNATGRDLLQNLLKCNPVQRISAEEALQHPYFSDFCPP
Sequence (Q15078 whole entry, further chain): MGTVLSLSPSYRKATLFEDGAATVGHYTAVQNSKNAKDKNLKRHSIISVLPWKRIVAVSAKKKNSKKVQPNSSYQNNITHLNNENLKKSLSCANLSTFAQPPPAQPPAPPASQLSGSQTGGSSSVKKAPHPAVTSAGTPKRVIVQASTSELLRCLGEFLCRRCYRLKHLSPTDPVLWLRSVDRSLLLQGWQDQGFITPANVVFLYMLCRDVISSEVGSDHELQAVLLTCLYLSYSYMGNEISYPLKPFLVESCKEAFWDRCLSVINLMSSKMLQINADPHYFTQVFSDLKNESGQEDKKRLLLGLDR
assay.method.text: Inhibition of recombinant CDK5/p25 expressed in Escherichia coli
value.type: IC50

Solved entries:
INSERT INTO assay_data (smiles_data, assay_target, result) VALUES
  ('CC1(C)CNC(=O)c2cc3n(c2C1)CCc1cc(F)ccc1-3', 'Cyclin-dependent kinase 5/CDK5 activator 1 (Homo sapiens, UniProt Q00535)', '> 10 µM'),
  ('CC1(C)CNC(=O)c2cc3n(c2C1)CCc1cc([N+](=O)[O-])ccc1-3', 'Cyclin-dependent kinase 5/CDK5 activator 1 (Homo sapiens, UniProt Q00535)', '> 10 µM');

// switching to the query molecule
Data point: `CC1(C)CNC(=O)c2cc3n(c2C1)CCc1cc(Br)ccc1-3` ; IC50 = > 10 µM

###

System: U-251
assay.method.text: Cytotoxicity against human U251 cells after 48 hrs by SRB assay
Type: functional, cell-based
run.conditions: U-251, 48 h
pIC50: −log10 of the molar value.
value.type: pIC50

Solved entries:
INSERT INTO measurements (smiles_data, result) VALUES
  ('COc1ccc2c(c1)CCn1c-2cc2c1CC(C)(C)CNC2=O', '< 4.00'),
  ('CC1(C)CNC(=O)c2cc(-c3ccc([N+](=O)[O-])cc3)n(-c3ccc(Br)cc3)c2C1', 4.59),
  ('COc1ccc2c(c1)CCn1c-2cc2c1CC(C)(C)CC2=O', '< 4.00'),
  ('O=C1Cc2c([nH]c3ccc(Br)cc23)-c2ccccc2N1', '< 4.00'),
  ('CC1(C)CC(=O)c2cc3n(c2C1)CCc1cc(F)ccc1-3', '< 4.00'),
  ('CC1(C)CC(=O)c2cc3n(c2C1)CCc1cc([N+](=O)[O-])ccc1-3', '< 4.00'),
  ('CC1(C)CC(=O)c2cc3n(c2C1)CCc1ccccc1-3', '< 4.00'),
  ('O=C1Cc2c([nH]c3ccc([N+](=O)[O-])cc23)-c2ccccc2N1', 6.17);

Data point: `CC1(C)CNC(=O)c2cc(-c3ccc([N+](=O)[O-])cc3)n(-c3ccc(Cl)cc3)c2C1` ; pIC50 = 4.54

Data point: `CC1(C)CNC(=O)c2cc3n(c2C1)CCc1cc(F)ccc1-3` ; pIC50 = < 4.00

Data point: `CC1(C)CNC(=O)c2cc3n(c2C1)CCc1cc([N+](=O)[O-])ccc1-3` ; pIC50 = < 4.00

Data point: `CC1(C)CNC(=O)c2cc3n(c2C1)CCc1cc(Cl)ccc1-3` ; pIC50 = < 4.00

Data point: `CC1(C)CC(=O)c2cc3n(c2C1)CCc1cc(Br)ccc1-3` ; pIC50 = 4.27

Data point: `CC1(C)CC(=O)c2cc3n(c2C1)CCc1cc(Cl)ccc1-3` ; pIC50 = < 4.00
